biological target: UniProt P0DTC2
Hi there, I'd appreciate the recorded Binding with RBD (% of control ± SD) for every entry that follows.

Reported Binding with RBD (% of control ± SD) for O=C(/C=C/c1ccc(O)c(O)c1)O[C@H](Cc1ccc(O)c(O)c1)C(=O)O : what is it? 22.5 ± 3.8 % of control

COc1ccc2cc3[n+](cc2c1OC)CCc1cc2c(cc1-3)OCO2 , same question. 17.3 ± 2.7 % of control

Oc1cc(O)c2c(c1)O[C@H](c1cc(O)c(O)c(O)c1)[C@@H](O)C2 [(+)-gallocatechin] , same question. 69.5 ± 2.8 % of control

O=C(O)[C@H]1O[C@@H](Oc2cc3oc(-c4ccc(O)cc4)cc(=O)c3c(O)c2O)[C@H](O)[C@@H](O)[C@@H]1O , same question. 8.1 ± 3.7 % of control

COc1ccc([C@@H]2CC(=O)c3c(O)cc(O)cc3O2)cc1O , same question. 42.5 ± 4.6 % of control

Oc1ccc2c(c1)OC[C@]1(O)Cc3cc(O)c(O)cc3[C@H]21 , same question. 100 ± 0.1 % of control

COc1ccc([C@@H]2CC(=O)c3c(O)cc(O[C@@H]4O[C@H](CO[C@@H]5O[C@@H](C)[C@H](O)[C@@H](O)[C@H]5O)[C@@H](O)[C@H](O)[C@H]4O)cc3O2)cc1O , same question. 90.3 ± 3.8 % of control
